Origin of measurements: PubChem BioAssay AID488857

test: ASC/caspase-1 reporter retest in S. cerevisiae at one dose, specificity check for NALP1 project (AID 488857); conditions: S. cerevisiae ASC/Caspase-1, beta-galactosidase luminescence, 24 h; at 10 µM
Out of some 1,400 compounds screened, about 560 (40%) were called active.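 Rule for the calls: active = mean inhibition over duplicate tests at 10 µM above 50%; inactive = the rest.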 So high a share suggests a set chosen from earlier hits. Some of the results follow.
Outcomes: label 1 (active), label 0 (inactive)

| compound | label.value |
| --- | --- |
| CN(C)CCCN(C(=O)c1sc2ccccc2c1Cl)c1nc2ccc(F)cc2s1 | label 1 |
| O=C(NC1CCCC1)C(c1ccccn1)N(C(=O)c1csnn1)C1CC1 (configuration not stated) | label 0 |
| COC(=O)c1sccc1NC(=O)c1csc(C)c1 | label 0 |
| O=C(Cn1c(=O)oc2ccccc21)Nc1ccc(Cl)cc1 | label 0 |
| Nc1c(Cl)ncnc1N/N=C/c1ccccn1 | label 1 |
| CCOC(=O)C1C(=O)Oc2ccc3ccccc3c2C1C1CCOC1=O (configuration not stated) | label 0 |
| CCCc1ccc(-c2c(C)sc(N)c2C#N)cc1 | label 1 |
| O=C(Nc1cccc(O)c1)c1noc2c1CCc1ccccc1-2 | label 1 |
| Cc1c(Cl)c([N+](=O)[O-])nn1Cc1ccc(C(=O)N/N=C\c2ccccn2)o1 | label 0 |
| CCOc1cc(-c2c(C)c(C)nc(N)c2C#N)ccc1O | label 0 |
| CCN(CC)c1ccc(NC(=O)Cn2cc3c(n2)CCC(C)C3)c(C)c1 (configuration not stated) | label 1 |
| CC(C)Oc1ccc(Cc2cnc(N)nc2N)cc1 | label 0 |

###

experiment: ASC/caspase-1 reporter retest in S. cerevisiae at one dose, specificity check for NALP1 project (AID 488857); settings: S. cerevisiae ASC/Caspase-1, beta-galactosidase luminescence, 24 h; at 10 µM
Among all 1,400 compounds or so, about 560 (40%) were called active.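 Rule for the calls: active = mean inhibition over duplicate tests at 10 µM above 50%; inactive = the rest.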 The set was probably picked from earlier hits. Some of the results follow.
Outcomes: active, inactive

| compound | label.value |
| --- | --- |
| CSc1ccc(/C=C/C(=O)c2ccc(O)cc2)cc1 | active |
| Cc1ccc(-c2cc(NC(=O)CSc3n[nH]c(N)n3)n(-c3ccccc3)n2)cc1 | inactive |
| C#CCOc1c(Br)cc(/C=N/O)cc1OCC | inactive |
| CCOC(=O)C(C(=O)OCC)C(C(=O)OCC)N1CCOCC1 (centres undefined) | active |
| Cc1ccc(S(=O)(=O)N(C)C)cc1NC(=O)Nc1ccccc1F | inactive |
| COc1cc(/C=C/C(=O)Nc2ccc(C)cc2)cc(OC)c1OC | inactive |
| CC1CCCN(CCC(=O)c2ccc(Br)cc2)C1 (centres undefined) | inactive |
| Cc1cc(Cl)c(OCCCN2CCCCC2)c(Br)c1 | inactive |
| Cc1c(NC(=O)c2cc3c(s2)-c2ccccc2OC3)cccc1[N+](=O)[O-] | active |
| c1ccc2[nH]c3cc4ncnc4cc3nc2c1 | inactive |
| CCOc1ccc(NC2=C(OC)C(=O)c3ccccc3C2=O)cc1 | inactive |
| Cc1cc(C)c(NC(=O)/C(=C/c2ccccc2)c2ccccc2)c(C)c1 | inactive |
| Cc1cc(Cl)c(OCCOCCN2CCC(C)CC2)c(Br)c1 | active |
| CCCCCCCCCCCCCCCCn1cc[n+](C)c1 | active |
| Cn1nnc(NC(=O)/C=C/c2ccco2)n1 | inactive |
| O=C1CSC(=S)N1c1ccc(O)cc1 | active |
| Cc1cc(Nc2ccccc2)nn1C(=O)c1ccccc1 | active |
| O=C1/C(=C/c2cccnc2)SC(=S)N1C1CCS(=O)(=O)C1 (centres undefined) | inactive |
| CCOC(=O)COc1ccc2ccccc2c1/C=C/[N+](=O)[O-] | active |
| CCCCCCCCCCCCCCCCn1cc[n+](CC(C)=O)c1 | active |
| Cc1cccc2sc(N(CCCN(C)C)C(=O)CCS(=O)(=O)c3ccccc3)nc12 | active |
| CCn1nc(C)cc1Nc1ccccc1 | inactive |
| CN(C)CCCN(C(=O)CCS(=O)(=O)c1ccccc1)c1nc2cc3c(cc2s1)OCO3 | active |
| CCOC(=O)C[N+](CC)(CC)CC#Cc1ccccc1 | inactive |
| COc1cc(N2C(=O)CSC2=S)cc(OC)c1OC | active |
| Cc1cc(Cl)c(OCCCCN2CCOCC2)c(Br)c1 | inactive |
| CCOc1ccc(NC(=O)c2cc3c(C)nc4ccccc4c3o2)cc1 | inactive |
| CCOc1ccc(N=c2oc3cc(O)ccc3cc2C(=O)NCC2CCCO2)cc1 (centres undefined) | inactive |
| O=C1C=CC(=O)N1c1ccc(N2CCCCC2)cc1 | active |
| O=C(NNC(=O)c1ccc(-c2ccccc2)cc1)Nc1ccc(F)cc1F | inactive |
| COc1cc(C2SCC(=O)N2CCCN(C)C)cc(OC)c1OC (centres undefined) | inactive |
| CCn1c(C)[n+](CC(O)COCC2CC=CCC2)c2ccccc21 (centres undefined) | inactive |
| CC(=O)C1=C(O)C(=O)N(CCC(=O)O)C1c1ccc(Cl)cc1Cl (centres undefined) | inactive |
| N#CC1(C#N)CC(C=O)=C(N)C1(C#N)CC(=O)C12CC3CC(CC(C3)C1)C2 (centres undefined) | inactive |
| CC(=O)N1CC[n+]2c(-c3ccc(Cl)cc3Cl)csc21 | inactive |
| O=[N+]([O-])c1ccc(N2CCCCC2)cc1 | inactive |
| CCCCNC(=O)Nc1nnc(-c2ccc(Cl)cc2)o1 | active |
| Cc1ccc2nc(N(CCCN(C)C)C(=O)CCc3ccccc3)sc2c1 | active |
| CCOC(=O)COc1ccccc1/C=C\[N+](=O)[O-] | active |
| CN(C)CCCN(C(=O)CCOc1ccccc1)c1nc2c(F)cccc2s1 | active |
| Cn1nc(NC(=O)C(C)(C)C)c2c(F)cccc21 | inactive |
| CCN(C(=O)[C@@H]1CCCN1C(=O)c1cccs1)c1nc2cc(Cl)ccc2s1 | active |
| CSc1cc(N2CCOCC2)nc(-c2ccccc2Cl)n1 | active |
| CC(C)NC(=O)c1ccc(COCC(F)(F)F)cc1 | inactive |
| CCCCNC(=O)Nc1cc(C)on1 | inactive |
| CC1=C(OC(=O)c2ccc(Br)cc2)C(C)(C)C(c2ccccc2)OC1=O (centres undefined) | inactive |
| CSc1ccc(/C=C/C(=O)c2ccc(NC(C)=O)cc2)cc1 | active |
| CCc1ccc(CC(=S)N2CCOCC2)cc1 | active |
| CN(C)CCN(C(=O)/C=C/c1cccs1)c1nc2ccc(F)cc2s1 | active |
